Origin of values: paper PMC11325505

The following compounds are shown together with reported MIC, Gentamicin [1 mg/L] yes values.
Tested on: MRSA 3596
ASSAY METHOD TEXT: Mode of antimicrobial action with erythromycin or gentamicin, ermA- and aadD-positive strain
Format: cell-based, S. aureus
MEASUREMENT CONDITIONS: MRSA 3596 (aadD); with gentamicin 1 mg/L

Example results:
O=c1cc(-c2ccc(O)c(O)c2)oc2c(Nc3ccc(F)cc3)c(O)cc(O)c12    > 200 µM
O=c1c(O)c(-c2ccc(O)c(O)c2)oc2c(Nc3ccc(F)cc3)c(O)cc(O)c12    > 200 µM
O=c1cc(-c2ccc(O)c(O)c2)oc2c(Nc3ccccc3)c(O)cc(O)c12    23.2 ± 0.4 µM
O=c1c(O)c(-c2ccc(O)c(O)c2)oc2c(Nc3ccc(C(F)(F)F)cc3)c(O)cc(O)c12    5.7 ± 0.1 µM
O=c1cc(-c2ccc(O)c(O)c2)oc2cc(O)cc(O)c12 [compound 10, luteolin, reference compound]    6.7 ± 0.1 µM
O=c1c(O)c(-c2ccc(O)c(O)c2)oc2cc(O)cc(O)c12 [compound 4, quercetin, reference compound]    54.5 ± 0.6 µM

Short answer for "O=c1cc(-c2ccc(O)c(O)c2)oc2c(Nc3ccc(C(F)(F)F)cc3)c(O)cc(O)c12" : MIC, Gentamicin [1 mg/L] yes was > 200 µM

Short answer for "COc1ccc(Nc2c(O)cc(O)c3c(=O)cc(-c4ccc(O)c(O)c4)oc23)cc1" : MIC, Gentamicin [1 mg/L] yes was 31.4 ± 1.0 µM

Short answer for "O=c1cc(-c2ccc(O)c(O)c2)oc2c(Nc3cccc(F)c3)c(O)cc(O)c12" : MIC, Gentamicin [1 mg/L] yes was 5.3 ± 0.1 µM

Short answer for "O=c1c(O)c(-c2ccc(O)c(O)c2)oc2c(Nc3ccccc3)c(O)cc(O)c12" : MIC, Gentamicin [1 mg/L] yes was > 200 µM

###

Test system: S. aureus CCM 4223
ASSAY METHOD TEXT: Antibacterial activity, antibiotic-sensitive strain
Assay type: cell-based
MEASUREMENT CONDITIONS: Staphylococcus aureus, CCM4223, three repetitions ± SEM
The following compounds are shown together with reported pIC50 values.
In simple prose, pIC50 is minus the logarithm base ten of a concentration in moles per litre.

Example results:
COc1ccc(Nc2c(O)cc(O)c3c(=O)cc(-c4ccc(O)c(O)c4)oc23)cc1    4.27
O=c1cc(-c2ccc(O)c(O)c2)oc2c(Nc3ccc(F)cc3)c(O)cc(O)c12    4.38
O=c1c(O)c(-c2ccc(O)c(O)c2)oc2c(Nc3ccccc3)c(O)cc(O)c12    4.49

Short answer for "O=c1c(O)c(-c2ccc(O)c(O)c2)oc2c(Nc3ccc(C(F)(F)F)cc3)c(O)cc(O)c12" : pIC50 was 4.41

Short answer for "O=c1cc(-c2ccc(O)c(O)c2)oc2c(Nc3ccc(C(F)(F)F)cc3)c(O)cc(O)c12" : pIC50 was 4.82

Short answer for "COc1ccc(Nc2c(O)cc(O)c3c(=O)c(O)c(-c4ccc(O)c(O)c4)oc23)cc1" : pIC50 was 4.36

Short answer for "O=c1cc(-c2ccc(O)c(O)c2)oc2c(Nc3cccc(F)c3)c(O)cc(O)c12" : pIC50 was 4.55

Short answer for "O=c1c(O)c(-c2ccc(O)c(O)c2)oc2c(Nc3ccc(F)cc3)c(O)cc(O)c12" : pIC50 was 4.55

Short answer for "O=c1cc(-c2ccc(O)c(O)c2)oc2c(Nc3ccccc3)c(O)cc(O)c12" : pIC50 was 4.30

###

Test system: human dermal fibroblasts (HDF)
ASSAY METHOD TEXT: Cytotoxicity (resazurin assay), fibroblasts
Type: cell-based
MEASUREMENT CONDITIONS: Homo sapiens, Fibroblast, 72 h, read-out: HDF IC50 (concentration that halved the viability)
Description: The cytotoxicity of the prepared derivatives was evaluated by their ability to decrease the viability of immortalized human keratinocytes (HaCaT) and human dermal fibroblasts (HDF). 100 μL of cell suspension containing 10^5 cells/mL was pipetted into a 96-well plate. After 24 h incubation, the tested compounds were added in the concentration range 12.5–200 μM. […] The fluorescence was measured at a wavelength of 560 nm excitation/590 nm emission.
QUANTITY NAME: pIC50
In simple prose, pIC50 is minus the logarithm base ten of a concentration in moles per litre.

Example results:
O=c1c(O)c(-c2ccc(O)c(O)c2)oc2cc(O)cc(O)c12 [compound 4, quercetin, reference compound]    4.10
O=c1cc(-c2ccc(O)c(O)c2)oc2c(Nc3ccc(C(F)(F)F)cc3)c(O)cc(O)c12 [compound 14]    4.52
O=c1cc(-c2ccc(O)c(O)c2)oc2c(Nc3ccc(F)cc3)c(O)cc(O)c12 [compound 11]    4.28
O=c1cc(-c2ccc(O)c(O)c2)oc2cc(O)cc(O)c12 [compound 10, luteolin, reference compound]    4.37

Now consider the entry below.
Short answer for O=c1c(O)c(-c2ccc(O)c(O)c2)oc2c(Nc3ccc(C(F)(F)F)cc3)c(O)cc(O)c12 [compound 8] : pIC50 was 3.95

###

Test system: immortalized human keratinocytes (HaCaT)
ASSAY METHOD TEXT: Cytotoxicity (resazurin assay), keratinocytes
Assay type: cell-based
MEASUREMENT CONDITIONS: 72 h incubation, resazurin; average of three repetitions ± SEM; listed as doxorubicin; read-out: HaCaT IC50 (concentration that halved the viability)
pIC50: −log10 of the molar value.
QUANTITY NAME: pIC50

Form field pIC50 for item COc1cccc2c1C(=O)c1c(O)c3c(c(O)c1C2=O)C[C@@](O)(C(=O)CO)C[C@@H]3O[C@H]1C[C@H](N)[C@H](O)[C@H](C)O1 [Doxorubicin, reference compound] on immortalized human keratinocytes (HaCaT): > 6.00

###

System: Staphylococcus aureus MRSA 9
ASSAY METHOD TEXT: Modulation of antibiotic-resistant phenotype (flavonoid plus breakpoint concentration of antibiotic)
Format: cell-based
MEASUREMENT CONDITIONS: gentamicin at breakpoint concentration 1 mg/L; MIC determined as IC70; three repetitions ± SEM
The following compounds are shown together with reported minimum inhibitory concentration (MIC) in the presence of gentamicin values.
Kindly provide the numeric value in µM only, without the unit symbol.

O=c1c(O)c(-c2ccc(O)c(O)c2)oc2c(Nc3ccccc3)c(O)cc(O)c12    43.8
O=c1cc(-c2ccc(O)c(O)c2)oc2c(Nc3ccccc3)c(O)cc(O)c12    24.7
O=c1cc(-c2ccc(O)c(O)c2)oc2cc(O)cc(O)c12 [compound 10, luteolin, reference compound]    84.7

Short answer for "O=c1cc(-c2ccc(O)c(O)c2)oc2c(Nc3cccc(F)c3)c(O)cc(O)c12" : minimum inhibitory concentration (MIC) in the presence of gentamicin was 12.4

Short answer for "O=c1c(O)c(-c2ccc(O)c(O)c2)oc2c(Nc3ccc(F)cc3)c(O)cc(O)c12" : minimum inhibitory concentration (MIC) in the presence of gentamicin was 45.2

Short answer for "COc1ccc(Nc2c(O)cc(O)c3c(=O)cc(-c4ccc(O)c(O)c4)oc23)cc1" : minimum inhibitory concentration (MIC) in the presence of gentamicin was 44.0

###

Test system: MRSA 1584
ASSAY METHOD TEXT: Mode of antimicrobial action with gentamicin, aac(6')/aph(2')-positive strain
Assay type: cell-based, Staphylococcus aureus
MEASUREMENT CONDITIONS: MRSA 1584 (aac(6')/aph(2')); with gentamicin 1 mg/L
QUANTITY NAME: MIC, Gentamicin [1 mg/L] yes (µM)
Kindly provide the numeric value in µM only, without the unit symbol.

O=c1cc(-c2ccc(O)c(O)c2)oc2c(Nc3cccc(F)c3)c(O)cc(O)c12 [compound 15]    27.6

Short answer for O=c1c(O)c(-c2ccc(O)c(O)c2)oc2cc(O)cc(O)c12 [compound 4, quercetin, reference compound] : MIC, Gentamicin [1 mg/L] yes was 55.6

Short answer for O=c1c(O)c(-c2ccc(O)c(O)c2)oc2c(Nc3ccccc3)c(O)cc(O)c12 [compound 7] : MIC, Gentamicin [1 mg/L] yes was 31.9

Short answer for O=c1c(O)c(-c2ccc(O)c(O)c2)oc2c(Nc3ccc(C(F)(F)F)cc3)c(O)cc(O)c12 [compound 8] : MIC, Gentamicin [1 mg/L] yes was 23.9

###

Tested on: MRSA 3596
ASSAY METHOD TEXT: Mode of antimicrobial action with erythromycin or gentamicin, ermA- and aadD-positive strain
Format: cell-based, S. aureus
MEASUREMENT CONDITIONS: MRSA 3596; with erythromycin
QUANTITY NAME: FIC (Fractional Inhibitory Concentration Index)
Just the number, please, no unit after it.

Example results:
O=c1cc(-c2ccc(O)c(O)c2)oc2c(Nc3ccc(C(F)(F)F)cc3)c(O)cc(O)c12 [compound 14]    2.07
O=c1cc(-c2ccc(O)c(O)c2)oc2cc(O)cc(O)c12 [compound 10, luteolin, reference compound]    0.28
O=c1c(O)c(-c2ccc(O)c(O)c2)oc2cc(O)cc(O)c12 [compound 4, quercetin, reference compound]    0.33
COc1ccc(Nc2c(O)cc(O)c3c(=O)cc(-c4ccc(O)c(O)c4)oc23)cc1 [compound 12]    0.37

Now consider the entry below.
Form field FIC (Fractional Inhibitory Concentration Index) for item O=c1cc(-c2ccc(O)c(O)c2)oc2c(Nc3ccc(F)cc3)c(O)cc(O)c12 [compound 11] on MRSA 3596: 0.85
